Collected IC50 for Histone deacetylase 1 (Homo sapiens) across several studies; compounds listed below.
Express it in nM; write the number only.

[[record]]
compound = "O=C(NO)c1ccc(Cn2ccc3cc(N4CCN(Cc5cccc(F)c5)CC4)cnc32)cc1"
recorded_number = 1930

[[record]]
compound = "O=C(/C=C/c1ccc([C@@H]2CCCN2CCc2cnn3ccccc23)c(Cl)c1)NO"
recorded_number = 4

[[record]]
compound = "O=C(/C=C/c1ccc(C2CCCN2CCCc2ccccc2)cc1)NO (stereo not shown)"
recorded_number = 5

[[record]]
compound = "O=C(/C=C/c1ccc(C2CCCN2CCc2ccccn2)cc1)NO (stereo not shown)"
recorded_number = 21

[[record]]
compound = "CNC(=O)N1CCC(Nc2ncc(C(=O)NO)cn2)(c2ccccc2)CC1"
recorded_number = 170

[[record]]
compound = "O=C(/C=C/c1ccc(C2CCCN2CCc2ccc(O)cc2)cc1)NO (stereo not shown)"
recorded_number = 3


### Prompt Please give the measured IC50 for this compound: `COCCN1CCN(CCn2c(C)c(Cc3ccc(C(=O)NO)cc3)c3ccccc32)CC1`
### Response 1890

### Prompt Please give the measured IC50 for this compound: `CNc1ccc(C(=O)NCCCCCCC(=O)NO)cc1`
### Response 6.1

### Prompt Please give the measured IC50 for this compound: `CC(=O)N1CCC(Nc2ncc(C(=O)NO)cn2)(c2ccccc2)CC1`
### Response 346

### Prompt Please give the measured IC50 for this compound: `CC(C)(C)OC(=O)N1CC=C(c2cnc3c(ccn3Cc3ccc(C(=O)NO)cc3)c2)CC1`
### Response 3430

### Prompt Please give the measured IC50 for this compound: `CCCCN(CCn1cnc2cc(/C=C/C(=O)NO)ccc21)C(C)C`
### Response 43

### Prompt Please give the measured IC50 for this compound: `Cc1cc(/C=C/C(=O)NO)ccc1-c1ccc(N2CCNCC2)cc1`
### Response 671

### Prompt Please give the measured IC50 for this compound: `CN(Cc1ccc(/C=C/C(=O)NO)cc1F)CC1CCCCC1`
### Response 5.43

### Prompt Please give the measured IC50 for this compound: `Cn1cc(Cc2ccc(F)cc2)c2cc(C(=O)NO)ccc21`
### Response 2600
